Entry source: patent US20260028417A1

Give EC50 for every item shown.
TARGET: T1, monkey HER3 protein (extracellular sequence with six histidines at the C-terminal) (monkey)
T1 construct: Made in HEK293 cells; also called Monkey HER3-His
T1 chain: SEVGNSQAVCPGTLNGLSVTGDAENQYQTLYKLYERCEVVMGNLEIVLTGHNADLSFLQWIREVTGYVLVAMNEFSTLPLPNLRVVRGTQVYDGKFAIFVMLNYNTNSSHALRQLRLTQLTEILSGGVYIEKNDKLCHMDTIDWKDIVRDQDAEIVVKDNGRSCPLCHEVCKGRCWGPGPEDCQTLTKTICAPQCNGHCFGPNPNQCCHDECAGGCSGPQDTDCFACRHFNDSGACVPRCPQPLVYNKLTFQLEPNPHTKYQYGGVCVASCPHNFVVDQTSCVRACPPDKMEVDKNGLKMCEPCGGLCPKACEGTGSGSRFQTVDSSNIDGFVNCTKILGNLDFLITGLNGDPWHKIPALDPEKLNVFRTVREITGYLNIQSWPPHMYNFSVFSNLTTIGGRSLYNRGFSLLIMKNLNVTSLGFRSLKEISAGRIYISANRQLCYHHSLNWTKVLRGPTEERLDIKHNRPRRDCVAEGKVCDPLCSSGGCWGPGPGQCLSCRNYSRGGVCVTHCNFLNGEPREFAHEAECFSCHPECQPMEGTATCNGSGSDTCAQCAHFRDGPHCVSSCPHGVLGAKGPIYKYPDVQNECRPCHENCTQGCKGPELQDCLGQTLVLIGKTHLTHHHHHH
PROTOCOL: ELISA, coated monkey HER3 protein, chimeric antibody
Answers are plain numbers, in ng/mL.

Solved cases (3 shown):
{"BINDER": "44A4A11 (anti-human HER3 chimeric antibody) (antibody, V domains shown) VH: EVQLLESGGGLVQPGGSLRLSCAASGFTFSSYAMNWVRQAPGKGLEWVSSISDSGGSTYYADSVKGRFTISRDNSKNTLYLQMNSLRAEDTAVYYCAKDGGISMVRGVIIEEGYFDLWGRGTLVTSPQ VL: DIQLTQSPSFLSASVGDRVTITCRASQGISSYLAWYQQKPGKAPKLLIYVVSTLQSGVPSRFSGSGSGTEFTLTISSLQPEDFATYYCHQLNSYPLTFGGGTKVEIK", "UNIT INFO": "ng/mL", "EC50": 6.5}
{"BINDER": "47A3E3 (anti-human HER3 chimeric antibody) (antibody, V domains shown) VH: EVQLQESGPGLVKPSQTLSLTCAISGDSVSSSQSTWNWIRQSPSRGLEWLGRTFYRSRWYNDYALSMKSRITINPDTSKNQFSLQLNPVTPEDTAVYYCARDTYYYGSGGFDYWGQGSRVTVSS VL: DIQMTQSPSTLSASVGDRVTITCRASQSLSRWLAWYQQKPEKAPKLLIYKASSLESGVPSRFSGSGSGTEFTLTISTLQPDDFATYYCQQYKNYYSFGQGTKLEIK", "UNIT INFO": "ng/mL", "EC50": 10.1}
{"BINDER": "100H7D3 (anti-human HER3 chimeric antibody) (antibody, V domains shown) VH: EVQLVESGGGVVLPGRSLRLSCAASGFTFSRNAMHWVRQAPGKGLEWVAVIWHDGSNKYYGDSVKGRFTISRDNSKNTLYLQMDSLTAEDTAVYYCARDRGASDFRGQGTLVTVSS VL: DIQMTQSPSTLSASVGDRVTITCRASQSINNWLAWYQQKPEKAPKLLIYKASSLESGVPSRFSGSGSGTEFTLTISSLQPDDFATYYCQQYNSYSLTFGGGTKVEIK", "UNIT INFO": "ng/mL", "EC50": 18.7}

Field: next binder
-- ask Please give the measured EC50 for this binder: 22B6D2 (anti-human HER3 chimeric antibody) (antibody, V domains shown, detected with anti-Rat IgG) VH: EVHLVESGGGVVQPGRSLRLSCATSGFTFRSYGMHWVRQAPGKGLEWVAVIWYDGSNKYYADSVKGRFTISRDISKNTLYLQMNSLTAEDTAVYYCARYYYDSNGYYDAFDIWGQGTMVTVSS VL: DIQLTQSPSFLSASVGDRVTITCRASQGISNYLAWYQQKPGKAPKLLIFAASTLQSGVPSRFSGSGSGAEFTLTISSLEPEDFATYYCQQLNSYPITFGQGTRLEIK
-- reply 7.1
